procedure_summary: in vitro
condition_details: mouse, microsomes
quantity_name: microsomal CLint at 1 µM (µL/min/mg)

>>> print(df.to_string())
                              line_notation  measure_unit  val
0  CC(=O)Nc1ccc2cncc(-c3ccc(-c4cnn(C)c4)cc3)c2n1     µL/min/mg  168
1  Cn1cc(-c2ccc(-c3cncc4ccc(C(=O)N5CC(F)(F)C5)nc34)cc2)cn1     µL/min/mg  160
2  Cn1cc(-c2ccc(-c3cncc4ccc(C(N)=O)nc34)cc2)cn1     µL/min/mg  155

[P] CNC(=O)c1ccc2cncc(-c3ccc(-c4cnn(C)c4)cc3)c2n1
[Q] Cn1cc(-c2ccc(-c3cncc4ccc(-c5ccn(C)n5)nc34)cc2)cn1
[R] COC1CN(C(=O)c2ccc3cncc(-c4ccc(-c5cnn(C)c5)cc4)c3n2)C1
[S] COC1(C)CN(C(=O)c2ccc3c(N)ncc(-c4ccc(-c5cnn(C)c5)cc4)c3n2)C1
**Query** Sort the 4 molecules by microsomal CLint at 1 µM; largest first, smallest last. When ranking, write the labels in the order the request describes.
**Result** Q, P, R, S

[a] Cn1cc(-c2ccc(-c3cnc(N)c4ccc(C(=O)N5CC(F)(F)C5)nc34)cc2)cn1
[b] Cn1cc(-c2ccc(-c3cncc4ccc(N5CCOC5=O)cc34)cc2)cn1
[c] Cn1cc(-c2ccc(-c3cnc(N)c4ccc(C(=O)NC5CC5)cc34)cc2)cn1
[d] COC1(C)CN(C(=O)c2ccc3c(N)ncc(-c4ccc(-c5cnn(C)c5)cc4)c3c2)C1
[e] Cn1cc(-c2ccc(-c3cnc(N)c4ccc(N5CCOC5=O)cc34)cc2)cn1
**Query** Thanks in advance: please rank these 5 entries by microsomal CLint at 1 µM, highest to lowest. Sort the labels as requested; that list is your answer.
**Result** b, a, e, c, d
